Source: patent US20230242665A1

- TGT: T1, TROP2 antigen (extracellular region of TROP2, expressed in 293F cells) (human, UniProt P09758 27-274)
- T1 construct: extracellular domain; The antigen was coated on ELISA plates; For the Octet assay it was biotin-labelled and immobilized on streptavidin sensors; also called TROP2 protein
- T1 sequence (looked up): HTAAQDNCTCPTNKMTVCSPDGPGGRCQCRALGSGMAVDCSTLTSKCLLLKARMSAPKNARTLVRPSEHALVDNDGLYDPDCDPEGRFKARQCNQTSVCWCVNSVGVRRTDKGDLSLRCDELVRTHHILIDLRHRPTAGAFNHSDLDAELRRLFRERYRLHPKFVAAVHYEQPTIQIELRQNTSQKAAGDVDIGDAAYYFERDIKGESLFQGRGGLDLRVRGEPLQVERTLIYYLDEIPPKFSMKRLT
- METHOD SUMMARY: BLI (ForteBio Octet), biotin-labelled antigen on streptavidin sensor, antibody in solution
Measured koff, listed per entry for reference.
Write the number in s⁻¹ without appending the unit.

Recorded koff, per entry:
BINDER	NUMBER
7F11 chimeric antibody (antibody, human IgG1, kappa, V domains shown, The entries begin with a leader (signal) peptide; also called ch7F11) VH: QVQLQQSGPEVVKPGASVKMSCKASGYTFTDHVISWVKQRTGQGLEWIGQIYPGSDNSYYSEKLKDKATLTADKSSNTAYMQLVSLTSEDSAVYFCAREGYGYGKNGVGYAMDYWGQGTSVTVSS VL: SIVMTQTPKFLLVSAGDRVTITCKASQSVSNDVVWYQQKPGQSPKLLIYYASNRYTGVPDRFTGSGYGTDFTFTISTAQAEDLAVYFCQQDYSSPWTFGGGTKLEIKR	1.45e-05
7F11 humanized antibody (antibody, V domains shown, also called Hu7F11; hu7F11) VH: QVQLVQSGAEVKKPGASVKVSCKASGYTFTDHVISWVRQATGQGLEWMGQIYPGSDNSYYAQKFQGRVTLTADKSINTAYMELSSLRSEDTAVYYCAREGYGYGKNGVGYAMDYWGQGTLVTVSS VL: DIVMTQSPDSLAVSLGERATINCKASQSVSNDVVWYQQKPGQPPKLLIYYASNRYTGVPDRFSGSGYGTDFTLTISSLQAEDVAVYYCQQDYSSPWTFGGGTKVEIKR	1.85e-05
4D3 chimeric antibody (antibody, human IgG1, kappa, V domains shown, The entries begin with a leader (signal) peptide; also called ch4D3) VH: QVQLQQSGAELVKPGASVKLSCKASGYTFTSFDINWVRQRPEQGLEWIGWIFPGDGNTKSNEKFKGKATLTTDKSSSTAYMQLSRLTSEDSAVYFCVRGEALYYFDYWGPGTTLTVSS VL: DIQMTQSPSSLSASLGGKVTITCKPSQDINKYIAWYQHKPGKGPRLLIHSTSTLQPGIPSRFSGSGSGRDYSFTISNLEPEDIATYYCLQYDDLFTFGSGTKLEIKR	0.00162

Attention now shifts to the item below.
Lab book: koff of 4D3 humanized antibody (antibody, V domains shown, also called Hu4D3; hu4D3) VH: QVQLVQSGAEVKKPGASVKLSCKASGYTFTSFDINWVRQAPEQRLEWMGWIFPGDGNTKYSQKFQGRATITRDTSASTAYMELSSLRSEDTAVYYCVRGEALYYFDYWGQGTLVTVSS VL: DIQMTQSPSSLSASVGDRVTITCRASQDINKYLAWYQQKPGKVPKLLIYSTSTLQSGVPSRFSGSGSGTDFTLTISSLQPEDVATYYCLQYDDLFTFGQGTKLEIKR noted as 0.00428
